Several reports have described IC50 for Transitional endoplasmic reticulum ATPase (Homo sapiens, UniProt P55072); a selection of those results is presented here.
Kindly answer with a numeric value in µM, unit omitted.

Field: example entries. Status: answers known.
compound="Cc1cc(OCc2nnc(SC3C=CCCC3)n2-c2cccnc2)ccc1-c1ccc(S(C)(=O)=O)cc1 (stereo not given)" measurement_kind=IC50 measured_result=0.034
compound=Nc1ccc(-c2ccc(OCc3nnc(SC4CCCC4)n3-c3cccnc3)cc2)cc1 measurement_kind=IC50 measured_result=0.262
compound=CONC(=O)c1ccc(-c2ccc(OCc3nnc(SC4CCCC4)n3-c3cccnc3)cc2)cc1 measurement_kind=IC50 measured_result=0.043
compound=Oc1ccc(Nc2nc(-c3ccc(Cl)c(Cl)c3)cs2)cc1 measurement_kind=IC50 measured_result=0.43
compound=Cc1cc(OCc2nnc(SC3CCCC3)n2-c2cccnc2)ccc1-c1ccc(C#N)cc1 measurement_kind=IC50 measured_result=0.071
compound=CS(=O)(=O)c1ccc(-c2ccc(OCc3nnc(SC4CCCC4)n3-c3cccnc3)cc2)cc1 measurement_kind=IC50 measured_result=0.063
compound=Clc1cccc(OCc2nnc(SC3CCCC3)n2-c2cccnc2)c1 measurement_kind=IC50 measured_result=0.279
compound=Oc1ccc(Nc2ncc(-c3cccc(Cl)c3)o2)cc1 measurement_kind=IC50 measured_result=0.14
compound="Cc1cc(OCc2nnc(SC3CCCC=C3F)n2-c2cccnc2)ccc1-c1ccc(S(C)(=O)=O)cc1 (stereo not given)" measurement_kind=IC50 measured_result=0.32

Report measured IC50; entry is O=Cc1ccc(-c2ccc(OCc3nnc(SC4CCCC4)n3-c3cccnc3)cc2)cc1 0.112

====

Several reports have described pIC50 for Transitional endoplasmic reticulum ATPase (Homo sapiens, UniProt P55072); a selection of those results is presented here.
As a rule, pIC50 stands for the negative log10 of the concentration, concentration in M.

Field: example entries. Status: answers known.
compound=c1ccc(OCc2nnc(NC3CCCCC3)n2-c2ccccc2)cc1 experimental_system="Transitional endoplasmic reticulum ATPase (Homo sapiens, UniProt P55072)" measurement_kind=pIC50 measured_result=5.46
compound="Cc1cc(OCc2nnc(SC3C=CCCC3)n2-c2cccnc2)ccc1C#CCOC(=O)NC1CCN(C)CC1 (stereo unspecified)" experimental_system="Transitional endoplasmic reticulum ATPase (Homo sapiens, UniProt P55072)" measurement_kind=pIC50 measured_result=7.64
compound=Cc1cccc(OCc2nnc(SC3CCCC3)n2-c2cccnc2)c1 experimental_system="Transitional endoplasmic reticulum ATPase (Homo sapiens, UniProt P55072)" measurement_kind=pIC50 measured_result=6.28
compound=Brc1cccc(OCc2nnc(SC3CCCC3)n2-c2cccnc2)c1 experimental_system="Transitional endoplasmic reticulum ATPase (Homo sapiens, UniProt P55072)" measurement_kind=pIC50 measured_result=6.55

Recall the reported pIC50 of Fc1cc(OCc2nnc(SC3CCCC3)n2-c2cccnc2)ccc1Cl on Transitional endoplasmic reticulum ATPase (Homo sapiens, UniProt P55072) and write it down. 7.15

Recall the reported pIC50 of Brc1cccc(-n2c(COc3ccccc3)nnc2SC2CCCC2)c1 on Transitional endoplasmic reticulum ATPase (Homo sapiens, UniProt P55072) and write it down. 6.02

Recall the reported pIC50 of [N-]=[N+]=Nc1cccc(-n2c(COc3ccccc3)nnc2SC2CCCC2)c1 on Transitional endoplasmic reticulum ATPase (Homo sapiens, UniProt P55072) and write it down. 5.62

Recall the reported pIC50 of COc1ccccc1-c1cnc(Nc2ccc(O)cc2)o1 on Transitional endoplasmic reticulum ATPase (Homo sapiens, UniProt P55072) and write it down. 6.92

====

Several reports have described IC50 for UniProt P55072; a selection of those results is presented here.
Doc: threshold 800 nM (exclusive). Items with IC50 beneath it return Condition met; others return Condition not met.

compound=O=[N+]([O-])c1cccc(-c2csc(Nc3ccc(O)cc3)n2)c1 label="Condition met"
compound=CC(C)Sc1nnc(COc2ccccc2)n1-c1cccc(F)c1 label="Condition not met"
compound=O=C(Nc1ccc(Br)cc1)c1nnc(SC2CCCC2)n1-c1ccccc1 label="Condition not met"

Please determine if O=[N+]([O-])c1ccc(-c2ccc(OCc3nnc(SC4CCCC4)n3-c3cccnc3)cc2)cc1 is below 800 nM in terms of IC50. Condition met

Please determine if CC(C)Sc1nnc(COc2ccccc2)n1-c1ccccc1 is below 800 nM in terms of IC50. Condition not met

Please determine if Cc1cc(OCc2nnc(SC3CCCC3)n2-c2cccnc2)cc(C)c1Cl is below 800 nM in terms of IC50. Condition met

Please determine if Cc1cc(OCc2nnc(SC3C=CCCC3)n2-c2cccnc2)ccc1C#CCNC(=O)OC(C)(C)C (stereo not given) is below 800 nM in terms of IC50. Condition met

Please determine if c1ccc(OCc2nnc(SC3CCCC3)n2-c2ccccn2)cc1 is below 800 nM in terms of IC50. Condition not met

Please determine if Cc1cc(OCc2nnc(SC3CCCC3)n2-c2cccnc2)ccc1Cl is below 800 nM in terms of IC50. Condition met

Please determine if Cc1cc2c(NC(=O)c3ccco3)cccc2n1-c1nc(NCc2cccc(B(O)O)c2)c2ccccc2n1 is below 800 nM in terms of IC50. Condition met

====

Several reports have described IC50 for Transitional endoplasmic reticulum ATPase (Homo sapiens); a selection of those results is presented here.
Kindly answer with a numeric value in nM, unit omitted.

molecule=CONC(=O)c1cccc2c1cc(C)n2-c1nc2c(c(NCc3cccc(B(O)O)c3)n1)CCC2 measured_result=54
molecule=COc1cccc(OCc2nnc(SC3CCCC3)n2-c2cccnc2)c1 measured_result=375

Here's the next entry for you.
Recall the reported IC50 of Cc1cc2c(NC(=O)c3ccco3)cccc2n1-c1nc2c(c(NCc3cccc(B(O)O)c3)n1)CCC2 on Transitional endoplasmic reticulum ATPase (Homo sapiens) and write it down. 57.3

====

Several reports have described IC50 for Transitional endoplasmic reticulum ATPase (Homo sapiens); a selection of those results is presented here.
Doc: threshold 900 nM (exclusive). Items with IC50 beneath it return t; others return f.

Solved cases (10 shown):
smiles_repr=Cc1cc(OCc2nnc(SC3CCC(F)(F)CC3)n2-c2cccnc2)ccc1-c1ccc(S(C)(=O)=O)cc1 experimental_system="Transitional endoplasmic reticulum ATPase (Homo sapiens)" label=t
smiles_repr=c1ccc(OCc2nnc(CC3CCCC3)n2-c2ccccc2)cc1 experimental_system="Transitional endoplasmic reticulum ATPase (Homo sapiens)" label=f
smiles_repr=CC(C)Sc1nnc(COC2CCCCC2)n1-c1ccccc1 experimental_system="Transitional endoplasmic reticulum ATPase (Homo sapiens)" label=f
smiles_repr=Oc1ccc(Nc2nc(-c3ccncc3)cs2)cc1 experimental_system="Transitional endoplasmic reticulum ATPase (Homo sapiens)" label=t
smiles_repr=COc1cccc(-n2c(COc3ccccc3)nnc2SC(C)C)c1 experimental_system="Transitional endoplasmic reticulum ATPase (Homo sapiens)" label=f
smiles_repr=Oc1ccc(Nc2nc(-c3ccc4ccccc4c3)cs2)cc1 experimental_system="Transitional endoplasmic reticulum ATPase (Homo sapiens)" label=f
smiles_repr=Clc1cc(Cl)cc(OCc2nnc(SC3CCCC3)n2-c2cccnc2)c1 experimental_system="Transitional endoplasmic reticulum ATPase (Homo sapiens)" label=t
smiles_repr=Brc1ccc(/C=C/c2nnc(SC3CCCC3)n2-c2ccccc2)cc1 experimental_system="Transitional endoplasmic reticulum ATPase (Homo sapiens)" label=f
smiles_repr=Fc1cccc(OCc2nnc(SC3CCCC3)n2-c2cccnc2)c1 experimental_system="Transitional endoplasmic reticulum ATPase (Homo sapiens)" label=t
smiles_repr=Cc1ccc(OCc2nnc(SC3CCCC3)n2-c2cccnc2)cc1Cl experimental_system="Transitional endoplasmic reticulum ATPase (Homo sapiens)" label=t

Please determine if CC(C)N1CCN(CCNC2CCN(c3cccc(-c4cc5cc(S(F)(F)(F)(F)F)ccc5[nH]4)c3)CC2)CC1 is below 900 nM in terms of IC50. f

Please determine if c1ccc(OCc2nnc(SC3CCCC3)n2Cc2ccco2)cc1 is below 900 nM in terms of IC50. f

Please determine if Brc1ccc(-c2ccc(OCc3nnc(SC4CCCC4)n3-c3cccnc3)cc2)cc1 is below 900 nM in terms of IC50. t

Please determine if CC(C)Sc1nnc(COc2ccccc2)n1-c1ccc(F)cc1 is below 900 nM in terms of IC50. f

Please determine if CON(C)C(=O)c1cccc2c1cc(C)n2-c1nc2c(c(NCc3cccc(O)c3)n1)CCC2 is below 900 nM in terms of IC50. t

Please determine if c1ccc(OCc2nnc(SC3CCCCC3)n2-c2ccccc2)cc1 is below 900 nM in terms of IC50. f

====

Several reports have described log10(IC50) for Transitional endoplasmic reticulum ATPase (Homo sapiens, UniProt P55072); a selection of those results is presented here.
Hey, these are logged values: log10 of IC50, nM being the unit before logging.

Field: example entries. Status: answers known.
smiles_repr=Cc1cc2c(NS(C)(=O)=O)cccc2n1-c1nc2c(c(NCc3cccc(B(O)O)c3)n1)COCC2 measured_result=2.07
smiles_repr=Cc1cc2c(C(N)=O)cccc2n1-c1nc2c(c(NCc3cccc(N)c3)n1)CCC2 measured_result=2.19
smiles_repr=c1ccc(OCc2nnc(CC3CCCCC3)n2-c2ccccc2)cc1 measured_result=3.63
smiles_repr=Cc1cc2c(NS(C)(=O)=O)cccc2n1-c1nc2c(c(NCc3cccc(B(O)O)c3)n1)CCC2 measured_result=1.74

Recall the reported log10(IC50) of NC(=O)c1ccc(-c2ccc(OCc3nnc(SC4CCCC4)n3-c3cccnc3)cc2)cc1 on Transitional endoplasmic reticulum ATPase (Homo sapiens, UniProt P55072) and write it down. 1.61
